# tested on: IKZF2 (Homo sapiens (Human), UniProt Q96SW2+Q9UKS7)
# Sequence (Q9UKS7 whole entry): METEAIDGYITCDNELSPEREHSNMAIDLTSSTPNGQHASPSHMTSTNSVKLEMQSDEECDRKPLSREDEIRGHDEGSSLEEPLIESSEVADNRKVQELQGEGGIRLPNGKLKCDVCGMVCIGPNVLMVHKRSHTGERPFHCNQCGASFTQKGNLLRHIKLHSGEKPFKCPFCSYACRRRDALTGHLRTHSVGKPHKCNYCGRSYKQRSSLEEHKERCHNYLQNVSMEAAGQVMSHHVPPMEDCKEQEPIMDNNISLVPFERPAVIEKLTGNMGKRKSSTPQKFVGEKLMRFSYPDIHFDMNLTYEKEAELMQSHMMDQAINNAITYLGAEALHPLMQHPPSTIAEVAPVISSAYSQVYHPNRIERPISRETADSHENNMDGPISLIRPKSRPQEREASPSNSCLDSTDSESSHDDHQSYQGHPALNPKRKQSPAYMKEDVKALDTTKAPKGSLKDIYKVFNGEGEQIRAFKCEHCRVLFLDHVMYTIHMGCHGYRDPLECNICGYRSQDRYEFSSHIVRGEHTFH
# Sequence (Q96SW2 whole entry): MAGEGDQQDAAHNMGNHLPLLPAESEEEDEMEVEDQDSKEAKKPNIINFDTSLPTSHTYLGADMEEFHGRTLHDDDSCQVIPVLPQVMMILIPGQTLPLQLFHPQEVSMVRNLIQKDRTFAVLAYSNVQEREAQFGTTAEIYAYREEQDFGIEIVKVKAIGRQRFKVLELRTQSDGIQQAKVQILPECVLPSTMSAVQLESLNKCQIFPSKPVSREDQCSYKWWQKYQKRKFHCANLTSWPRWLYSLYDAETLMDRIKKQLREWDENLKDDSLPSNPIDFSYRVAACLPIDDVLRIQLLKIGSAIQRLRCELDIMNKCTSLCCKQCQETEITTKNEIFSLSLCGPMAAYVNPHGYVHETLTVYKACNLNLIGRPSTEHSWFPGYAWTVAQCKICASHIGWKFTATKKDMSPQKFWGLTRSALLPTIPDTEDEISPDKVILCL
# Sequence (Q16531 2-1140 partner): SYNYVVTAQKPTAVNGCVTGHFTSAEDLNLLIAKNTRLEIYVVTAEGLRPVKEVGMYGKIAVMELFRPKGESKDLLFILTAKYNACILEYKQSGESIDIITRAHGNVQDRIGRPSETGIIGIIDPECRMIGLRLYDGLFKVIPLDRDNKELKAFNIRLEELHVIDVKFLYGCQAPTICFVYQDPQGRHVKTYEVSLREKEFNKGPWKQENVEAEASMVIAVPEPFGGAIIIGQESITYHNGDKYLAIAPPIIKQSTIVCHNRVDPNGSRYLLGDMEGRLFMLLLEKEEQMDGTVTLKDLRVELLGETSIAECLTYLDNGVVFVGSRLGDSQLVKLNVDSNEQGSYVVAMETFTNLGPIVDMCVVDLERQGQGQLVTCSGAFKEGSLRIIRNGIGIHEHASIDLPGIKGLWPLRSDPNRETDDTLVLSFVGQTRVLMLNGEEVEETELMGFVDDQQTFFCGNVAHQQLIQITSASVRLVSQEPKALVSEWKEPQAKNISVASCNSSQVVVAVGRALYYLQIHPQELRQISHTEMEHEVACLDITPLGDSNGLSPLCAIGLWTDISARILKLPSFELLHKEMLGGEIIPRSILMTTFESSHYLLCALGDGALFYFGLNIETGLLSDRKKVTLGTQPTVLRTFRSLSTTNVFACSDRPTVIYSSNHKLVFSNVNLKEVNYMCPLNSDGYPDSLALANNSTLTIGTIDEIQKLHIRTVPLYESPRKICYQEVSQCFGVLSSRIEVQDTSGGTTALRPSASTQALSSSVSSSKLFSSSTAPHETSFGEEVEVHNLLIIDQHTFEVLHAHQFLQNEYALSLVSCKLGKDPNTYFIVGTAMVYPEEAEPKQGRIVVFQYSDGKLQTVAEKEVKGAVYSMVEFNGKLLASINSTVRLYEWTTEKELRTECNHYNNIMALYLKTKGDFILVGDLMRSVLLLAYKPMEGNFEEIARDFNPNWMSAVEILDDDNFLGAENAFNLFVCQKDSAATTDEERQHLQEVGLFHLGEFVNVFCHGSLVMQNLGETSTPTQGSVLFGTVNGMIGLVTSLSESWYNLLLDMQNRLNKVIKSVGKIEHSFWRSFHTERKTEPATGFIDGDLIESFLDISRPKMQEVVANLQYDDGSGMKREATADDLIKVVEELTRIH
# method: In vitro IKZF2 FACS Assay in Jurkat cells
# Type: cell-based
# protocol conditions: 24 hrs, maximal degradation percentage
Entries and their Dmax

[ask] Give its Dmax value. Item: C[C@H](NCc1cc(-c2ccc3c(c2)CN(C2CCC(=O)NC2=O)C3=O)n2cncc2c1)c1ccccc1 (single isomer, unassigned) [Example 14]
[reply] 40 to 60%

[ask] Give its Dmax value. Item: Cc1nn(C2COC2)c2nc(-c3ccc4c(c3)CN(C3CCC(=O)NC3=O)C4=O)cc(CN3CCCC3)c12 (stereo not shown) [Example 246]
[reply] > 80%

[ask] Give its Dmax value. Item: CO[C@H]1C[C@H](Oc2ccnc3c(CN4CCCC4)cc(-c4ccc5c(c4)CN(C4CCC(=O)NC4=O)C5=O)nc23)C1 (stereo partly shown) [Example 280]
[reply] 60 to 80%

[ask] Give its Dmax value. Item: Cn1ccc2c(CN3CCCC3)c(Cl)c(-c3ccc4c(c3)CN(C3CCC(=O)NC3=O)C4=O)nc21 (stereo not shown) [Example 229]
[reply] 60 to 80%

[ask] Give its Dmax value. Item: O=C1CCC(N2Cc3cc(-c4cc(CN5CCCC5)c5ccn(C6CCC6)c5n4)ccc3C2=O)C(=O)N1 (stereo not shown) [Example 128]
[reply] > 80%

[ask] Give its Dmax value. Item: O=C1CCC(N2Cc3cc(-c4cc(CN5CCCC5)c5ccn(C6CC6)c5n4)ccc3C2=O)C(=O)N1 (stereo not shown) [Example 119]
[reply] > 80%

[ask] Give its Dmax value. Item: O=C1CCC(N2Cc3cc(-c4cc(CN5CCC(F)CC5)c5cc[nH]c5n4)ccc3C2=O)C(=O)N1 (stereo not shown) [Example 116]
[reply] > 80%

----------
# tested on: IKZF1 (Homo sapiens (Human), UniProt Q13422+Q96SW2)
# Sequence (Q13422 whole entry): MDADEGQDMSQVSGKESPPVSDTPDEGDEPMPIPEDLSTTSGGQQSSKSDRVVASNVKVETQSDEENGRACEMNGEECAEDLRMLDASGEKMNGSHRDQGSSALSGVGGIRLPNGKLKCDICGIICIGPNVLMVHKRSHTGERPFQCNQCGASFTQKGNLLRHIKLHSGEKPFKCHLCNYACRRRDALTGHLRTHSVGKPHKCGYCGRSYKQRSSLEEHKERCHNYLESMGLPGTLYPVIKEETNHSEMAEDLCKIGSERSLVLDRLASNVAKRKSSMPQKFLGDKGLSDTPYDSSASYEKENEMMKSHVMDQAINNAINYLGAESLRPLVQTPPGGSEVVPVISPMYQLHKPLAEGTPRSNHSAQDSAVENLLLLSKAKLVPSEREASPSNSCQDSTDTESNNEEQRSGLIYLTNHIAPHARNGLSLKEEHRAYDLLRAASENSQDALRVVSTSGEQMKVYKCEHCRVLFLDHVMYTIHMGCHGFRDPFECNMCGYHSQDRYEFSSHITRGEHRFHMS
# Sequence (Q96SW2 whole entry): as the sequence (Q96SW2 whole entry) above
# Sequence (Q16531 2-1140 partner): as the sequence (Q16531 2-1140 partner) above
# method: In vitro IKZF1 HiBit Assay (HEK293T Flp-in-HiBiT-IKZF1 stable cell line)
# Type: cell-based
# protocol conditions: HEK293T Flp-in-HiBiT-IKZF1 stable cell line, 6 hrs incubation; read-out: IKZF1 HiBit DC50
Entries and their DC50

[ask] Give its DC50 value. Item: O=C1CCC(N2Cc3cc(-c4cc(CN5CCCCC5)cc5cncn45)ccc3C2=O)C(=O)N1 (stereo not drawn)
[reply] > 10 µM

[ask] Give its DC50 value. Item: Cc1cn(C2COC2)c2nc(-c3ccc4c(c3)CN(C3CCC(=O)NC3=O)C4=O)cc(CN3CCCC3)c12 (stereo not drawn)
[reply] > 10 µM

[ask] Give its DC50 value. Item: "Cn1ccc(-n2ccc3c(CN4CCCC4)cc(-c4ccc5c(c4)CN([C@H]4CCC(=O)NC4=O)C5=O)nc32)n1"
[reply] > 10 µM

----------
# tested on: CRBN/DDB1 (Homo sapiens (Human))
# Sequence (Q96SW2 whole entry, species assumed): as the sequence (Q96SW2 whole entry) above
# Sequence (Q16531 whole entry partner, species assumed): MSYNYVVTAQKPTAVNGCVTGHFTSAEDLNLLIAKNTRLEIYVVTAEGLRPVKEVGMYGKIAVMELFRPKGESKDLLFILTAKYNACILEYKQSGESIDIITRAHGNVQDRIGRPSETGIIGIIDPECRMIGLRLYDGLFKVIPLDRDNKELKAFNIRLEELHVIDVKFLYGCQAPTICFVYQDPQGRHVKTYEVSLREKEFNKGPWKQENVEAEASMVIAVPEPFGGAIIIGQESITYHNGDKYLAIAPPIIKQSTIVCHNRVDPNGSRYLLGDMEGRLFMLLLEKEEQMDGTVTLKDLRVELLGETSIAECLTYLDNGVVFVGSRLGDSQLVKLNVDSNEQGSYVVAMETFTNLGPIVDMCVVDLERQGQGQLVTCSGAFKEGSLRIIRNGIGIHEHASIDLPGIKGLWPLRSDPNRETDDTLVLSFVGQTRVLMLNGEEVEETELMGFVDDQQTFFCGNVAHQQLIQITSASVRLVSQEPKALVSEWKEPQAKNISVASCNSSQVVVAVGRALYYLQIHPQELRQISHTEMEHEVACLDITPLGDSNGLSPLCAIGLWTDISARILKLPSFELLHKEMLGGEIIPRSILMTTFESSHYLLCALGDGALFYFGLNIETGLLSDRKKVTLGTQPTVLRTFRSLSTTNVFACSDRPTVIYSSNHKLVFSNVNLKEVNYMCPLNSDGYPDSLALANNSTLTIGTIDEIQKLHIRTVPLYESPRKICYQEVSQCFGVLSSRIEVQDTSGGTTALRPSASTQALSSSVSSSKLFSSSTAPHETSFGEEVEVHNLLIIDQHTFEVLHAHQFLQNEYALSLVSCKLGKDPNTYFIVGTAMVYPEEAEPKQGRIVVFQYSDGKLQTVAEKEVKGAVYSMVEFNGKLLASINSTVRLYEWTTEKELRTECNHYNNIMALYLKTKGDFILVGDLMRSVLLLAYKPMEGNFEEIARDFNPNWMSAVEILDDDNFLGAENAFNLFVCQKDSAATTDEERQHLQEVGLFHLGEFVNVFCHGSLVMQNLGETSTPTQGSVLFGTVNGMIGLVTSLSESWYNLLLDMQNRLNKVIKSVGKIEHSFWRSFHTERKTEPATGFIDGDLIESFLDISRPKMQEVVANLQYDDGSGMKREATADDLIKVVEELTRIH
# method: IC50 measurements for binding to CRBN/DDB1 (HTRF)
# protocol conditions: His tagged CRBN+DDB, Cy5-labeled Thalidomide probe, one hour
metric name: IC50

Solved cases below.
molecule	tested on	IC50
Cn1ccc2c(CN3CCC(CO)C3)cc(-c3ccc4c(c3)CN(C3CCC(=O)NC3=O)C4=O)nc21 (centres unmarked)	CRBN/DDB1 (Homo sapiens (Human))	100 to 500 nM
Cn1ncc2nc(-c3ccc4c(c3)CN(C3CCC(=O)NC3=O)C4=O)cc(CN3CCCC3)c21 (centres unmarked)	CRBN/DDB1 (Homo sapiens (Human))	500 to 1000 nM
COCCn1ccc2c(CN3CCCC3)cc(-c3ccc4c(c3)CN(C3CCC(=O)NC3=O)C4=O)nc21 (centres unmarked)	CRBN/DDB1 (Homo sapiens (Human))	500 to 1000 nM
CC(C)Oc1ccnc2c(CN3CCCC3)cc(-c3ccc4c(c3)CN(C3CCC(=O)NC3=O)C4=O)nc12 (centres unmarked)	CRBN/DDB1 (Homo sapiens (Human))	500 to 1000 nM
COc1n[nH]c2c(CN3CCCC3)cc(-c3ccc4c(c3)CN(C3CCC(=O)NC3=O)C4=O)nc12 (centres unmarked)	CRBN/DDB1 (Homo sapiens (Human))	5000 to 10000 nM

[ask] Give its IC50 value. Item: Cc1ccccc1CCNCc1cc(-c2ccc3c(c2)CN(C2CCC(=O)NC2=O)C3=O)c2nccn2c1 (centres unmarked)
[reply] < 100 nM

[ask] Give its IC50 value. Item: O=C1CCC(N2Cc3cc(-c4nc5[nH]ccc5c(CN5CCCC5)c4Cl)ccc3C2=O)C(=O)N1 (centres unmarked)
[reply] 100 to 500 nM

[ask] Give its IC50 value. Item: Cn1ccc2c(CN3CCCC3)c(Cl)c(-c3ccc4c(c3)CN(C3CCC(=O)NC3=O)C4=O)nc21 (centres unmarked)
[reply] 100 to 500 nM

[ask] Give its IC50 value. Item: O=C1CCC(N2Cc3cc(-c4cc(CN5CCC(CO)CC5)c5ccn(C6CC6)c5n4)ccc3C2=O)C(=O)N1 (centres unmarked)
[reply] 100 to 500 nM

[ask] Give its IC50 value. Item: O=C1CCC(N2Cc3cc(-c4cc(CN5CC(c6ccccc6)C5)cn5ccnc45)ccc3C2=O)C(=O)N1 (centres unmarked)
[reply] < 100 nM

[ask] Give its IC50 value. Item: O=C1CCC(N2Cc3cc(-c4cc(CN5CCC(O)CC5)c5ccn(C6CC6)c5n4)ccc3C2=O)C(=O)N1 (centres unmarked)
[reply] 100 to 500 nM

[ask] Give its IC50 value. Item: Cn1ccc2c(CN3CCC(C#N)CC3)cc(-c3ccc4c(c3)CN(C3CCC(=O)NC3=O)C4=O)nc21 (centres unmarked)
[reply] 1000 to 5000 nM

[ask] Give its IC50 value. Item: CCn1ccc2c(CN3CCC3)cc(-c3ccc4c(c3)CN(C3CCC(=O)NC3=O)C4=O)nc21 (centres unmarked)
[reply] < 100 nM

[ask] Give its IC50 value. Item: Nc1n[nH]c2c(CN3CC4COCC(C4)C3)cc(-c3ccc4c(c3)CN(C3CCC(=O)NC3=O)C4=O)nc12 (centres unmarked)
[reply] 100 to 500 nM

[ask] Give its IC50 value. Item: O=C1CCC(N2Cc3cc(-c4cc(CN5CCCC5)c5ccn(CCOCc6ccccc6)c5n4)ccc3C2=O)C(=O)N1 (centres unmarked)
[reply] 100 to 500 nM

[ask] Give its IC50 value. Item: CN(C)C(=O)Cn1ccc2c(CN3CCCC3)cc(-c3ccc4c(c3)CN(C3CCC(=O)NC3=O)C4=O)nc21 (centres unmarked)
[reply] 1000 to 5000 nM

[ask] Give its IC50 value. Item: O=C1CCC(N2Cc3cc(-c4cc(CN5CCCC5)c5ccn(C6CCCCC6)c5n4)ccc3C2=O)C(=O)N1 (centres unmarked)
[reply] 100 to 500 nM

[ask] Give its IC50 value. Item: CC(C)Nc1n[nH]c2c(CN3CCCC3)cc(-c3ccc4c(c3Cl)CN(C3CCC(=O)NC3=O)C4=O)nc12 (centres unmarked)
[reply] 500 to 1000 nM

[ask] Give its IC50 value. Item: O=C1CCC(N2Cc3cc(-c4cc(CNCCc5c(F)cccc5F)cn5ccnc45)ccc3C2=O)C(=O)N1 (centres unmarked)
[reply] < 100 nM

[ask] Give its IC50 value. Item: Nc1n[nH]c2c(CN3CCC4(CC3)COC4)cc(-c3ccc4c(c3)CN(C3CCC(=O)NC3=O)C4=O)nc12 (centres unmarked)
[reply] 1000 to 5000 nM

[ask] Give its IC50 value. Item: O=C1CCC(N2Cc3cc(-c4cc(CNCCc5c(Cl)cccc5Cl)cn5ccnc45)ccc3C2=O)C(=O)N1 (centres unmarked)
[reply] 100 to 500 nM

[ask] Give its IC50 value. Item: CN(C)c1ccnc2c(CN3CCCC3)cc(-c3ccc4c(c3)CN(C3CCC(=O)NC3=O)C4=O)nc12 (centres unmarked)
[reply] 1000 to 5000 nM

----------
# tested on: IKZF2 (Homo sapiens (Human), UniProt Q96SW2+Q9UKS7)
# method: In vitro IKZF2 HiBit Assay (HEK293T Flp-in-HiBiT cells)
# Format: cell-based
# protocol conditions: HEK293T Flp-in-HiBiT cells, 6 hrs incubation; read-out: IKZF2 HiBit DC50
metric name: DC50

[ask] Give its DC50 value. Item: Nc1n[nH]c2c(CN3CCC(O)CC3)cc(-c3ccc4c(c3)CN(C3CCC(=O)NC3=O)C4=O)nc12 (stereo not shown) [Example 205]
[reply] 10 to 100 nM

[ask] Give its DC50 value. Item: O=C1CCC(N2Cc3cc(-c4cc(CN5CCCC5)c5nccc(N6CCC6)c5n4)ccc3C2=O)C(=O)N1 (stereo not shown) [Example 243]
[reply] 10 to 100 nM

[ask] Give its DC50 value. Item: O=C1CCC(N2Cc3cc(-c4cc(CN5CCCC5)c5ccn(CCO)c5n4)ccc3C2=O)C(=O)N1 (stereo not shown) [Example 131]
[reply] 10 to 100 nM

[ask] Give its DC50 value. Item: O=C1CCC(N2Cc3cc(-c4cc(CN5CC(F)C5)c5ccn(C6CC6)c5n4)ccc3C2=O)C(=O)N1 (stereo not shown) [Example 143]
[reply] 1 to 10 nM
